Recorded protein stability index for the following variants
B1: SNX8 (parent)
chain: LHQETQLIHVYLPLTSHILRAFVN

variants of: B1; experiment: protein stability index of a GFP-peptide fusion (GPS, HEK-293T) (PSI 1-6); higher = more stable; conditions: c terminus: a fixed tail appended;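 further: lentivirally expressed fusions sorted by FACS into six bins by GFP to DsRed ratio, PSI derived from sequencing read proportions per bin multiplied by bin number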

# SEQUENCE_INPUT, protein stability index
rows = [
    ("LHQETQLEHVYLPLTSHILRAFVN [I8E]", 2.44),
    ("LHQETQLIHVYLPLTSRILRAFVN [H17R]", 2.42),
    ("LHQETQLIHVYLPLTRHILRAFVN [S16R]", 2.83),
    ("LHQETQLIHVYLPLTKHILRAFVN [S16K]", 2.77),
    ("LHQETQLIHVYLPLTLHILRAFVN [S16L]", 2.08),
    ("LHQETQLIHVYLPLKSHILRAFVN [T15K]", 3.35),
    ("LHQETQLIHVYLPLTSHRLRAFVN [I18R]", 2.44),
    ("LDQETQLIHVYLPLTSHILRAFVN [H2D]", 3.62),
    ("LHQETQLIHVYLPLTSHISRAFVN [L19S]", 2.3),
    ("LHQETQLIHVYLPLTEHILRAFVN [S16E]", 2.16),
    ("LHQETQLIHVYLPLTCHILRAFVN [S16C]", 2.36),
    ("LHQETQLIHVYLPLTYHILRAFVN [S16Y]", 2.08),
    ("LHQETQLIHVYLPLTSHICRAFVN [L19C]", 2.66),
    ("LHQETQLIHVYLPTTSHILRAFVN [L14T]", 2.29),
    ("LHQETELIHVYLPLTSHILRAFVN [Q6E]", 2.88),
    ("LTQETQLIHVYLPLTSHILRAFVN [H2T]", 1.68),
    ("LHQETQLIHVYLPLTSHILRKFVN [A21K]", 2.03),
    ("LHQETQLIHVYLPLGSHILRAFVN [T15G]", 1.2),
    ("HHQETQLIHVYLPLTSHILRAFVN [L1H]", 1.85),
    ("THQETQLIHVYLPLTSHILRAFVN [L1T]", 3.62),
    ("LHQETQLIHVYLPLTMHILRAFVN [S16M]", 2),
    ("LHQETQLIHVYLPLTSHILRCFVN [A21C]", 2.73),
    ("LHQETQLIHVALPLTSHILRAFVN [Y11A]", 2.63),
    ("LHQETQLITVYLPLTSHILRAFVN [H9T]", 2.96),
    ("LHQETQLIHVYLPLTSHILRAFVA [N24A]", 2.76),
    ("LHQETQLIHVYLPLTSHITRAFVN [L19T]", 1.84),
    ("LHQETQLIHVYLPLTSHILRALVN [F22L]", 2.39),
    ("LHKETQLIHVYLPLTSHILRAFVN [Q3K]", 4.06),
    ("LHQWTQLIHVYLPLTSHILRAFVN [E4W]", 1.8),
    ("LHQETQLIHVYLPLTSHILRAGVN [F22G]", 2.88),
    ("LHQETKLIHVYLPLTSHILRAFVN [Q6K]", 1.7),
    ("LHQETQLIHPYLPLTSHILRAFVN [V10P]", 1.76),
    ("LHQETQLIHVYLPLTSHILRAFVL [N24L]", 2.37),
    ("LHQETQLIHVYHPLTSHILRAFVN [L12H]", 3.23),
    ("LHQETQLIHVYLPLTSHILRYFVN [A21Y]", 2.35),
    ("LHQETQLIHVYLPLTSHILRACVN [F22C]", 3.79),
    ("KHQETQLIHVYLPLTSHILRAFVN [L1K]", 3.1),
    ("LHQETQKIHVYLPLTSHILRAFVN [L7K]", 2.32),
    ("LHQETQLIHVYLPLTSHILRRFVN [A21R]", 2.63),
    ("LHQETQLIHVYLPLTSHWLRAFVN [I18W]", 2.33),
    ("LHQETQQIHVYLPLTSHILRAFVN [L7Q]", 2.71),
    ("LHQETQLIHVYLPLTSHKLRAFVN [I18K]", 1.97),
    ("LHQETQLIHVYLPLTSPILRAFVN [H17P]", 2.34),
    ("LHQETQLIHVYLPLTSHILRAFYN [V23Y]", 3.02),
    ("LHQETQLIHVYLPLTSHTLRAFVN [I18T]", 2.89),
    ("LHQETQLIHVYSPLTSHILRAFVN [L12S]", 1.7),
    ("LHQEVQLIHVYLPLTSHILRAFVN [T5V]", 4.08),
    ("LHQETQLIHVYLPLTSHILRAFVY [N24Y]", 2.88),
    ("LHQETQLIHVYLPLLSHILRAFVN [T15L]", 1.86),
    ("LHQETQLIHVKLPLTSHILRAFVN [Y11K]", 2.95),
    ("LHQETQLIHVYLPLTSHSLRAFVN [I18S]", 3.95),
    ("LHQETQLIHVYLPLVSHILRAFVN [T15V]", 4.03),
    ("LHQETQLIHVYLPLTSHIVRAFVN [L19V]", 4.01),
    ("LHQETQLIHEYLPLTSHILRAFVN [V10E]", 2.87),
    ("LHQETQLIHVYLPLTSHILRAFVH [N24H]", 5.51),
    ("LHQETQLIVVYLPLTSHILRAFVN [H9V]", 3.08),
    ("LHQETQLIHVYCPLTSHILRAFVN [L12C]", 2.52),
    ("LHHETQLIHVYLPLTSHILRAFVN [Q3H]", 2.62),
    ("LHQETQLIHVYLPLTSHILGAFVN [R20G]", 3.27),
    ("LHQETQLNHVYLPLTSHILRAFVN [I8N]", 2.09),
    ("LHQETQLIHVYLPLTSHNLRAFVN [I18N]", 1.79),
    ("LHQETQLIHVYLPLTSHILRANVN [F22N]", 1.92),
    ("LHQETQLIHVYLPLTSHILRAHVN [F22H]", 1.96),
    ("LHQETQLIHVYLPLTSHIPRAFVN [L19P]", 3.45),
    ("LHQETQLIEVYLPLTSHILRAFVN [H9E]", 1.65),
    ("LHQETQLIHVYLPLTSMILRAFVN [H17M]", 2.52),
    ("LHQETQLIHVYLPLTSHILRWFVN [A21W]", 2.18),
    ("LHQETQLIHVYLPLTSHILRPFVN [A21P]", 2.84),
    ("LHDETQLIHVYLPLTSHILRAFVN [Q3D]", 2.8),
    ("VHQETQLIHVYLPLTSHILRAFVN [L1V]", 2.64),
    ("LHSETQLIHVYLPLTSHILRAFVN [Q3S]", 3.32),
    ("LHQETQTIHVYLPLTSHILRAFVN [L7T]", 3.64),
    ("LHQNTQLIHVYLPLTSHILRAFVN [E4N]", 3.07),
    ("QHQETQLIHVYLPLTSHILRAFVN [L1Q]", 2.18),
    ("LHQETQLIMVYLPLTSHILRAFVN [H9M]", 2.9),
    ("LHQEWQLIHVYLPLTSHILRAFVN [T5W]", 2.22),
    ("EHQETQLIHVYLPLTSHILRAFVN [L1E]", 3.18),
    ("LHQETQLIHVYLPGTSHILRAFVN [L14G]", 3.49),
    ("LHQETQLIHMYLPLTSHILRAFVN [V10M]", 2.22),
    ("LHQETMLIHVYLPLTSHILRAFVN [Q6M]", 2.2),
    ("LHQETQLIHVYLPLTSAILRAFVN [H17A]", 2.06),
    ("RHQETQLIHVYLPLTSHILRAFVN [L1R]", 2.06),
    ("LHQETQLIHVYLPLTSHQLRAFVN [I18Q]", 2.27),
    ("LHQETQLIHVYLPLTSHILIAFVN [R20I]", 2.9),
    ("LHQETQLIHVYLPLTSHILRAFAN [V23A]", 3.31),
    ("LHQETWLIHVYLPLTSHILRAFVN [Q6W]", 3.31),
    ("LHQETQLAHVYLPLTSHILRAFVN [I8A]", 2.03),
    ("LHQETQLDHVYLPLTSHILRAFVN [I8D]", 2.22),
    ("LHQETQLIHVYLPLTNHILRAFVN [S16N]", 2.52),
    ("LHQETQLIHVYLPLTSHILYAFVN [R20Y]", 3.11),
    ("LHQETQLIPVYLPLTSHILRAFVN [H9P]", 2.22),
]

This collection of values is drawn from the supplement of paper PMC10567573.
